Data origin, for the record: PubChem BioAssay AID2018

Would you mind telling me the reported inhibition of each entry?
- measurement-target: SUMO-conjugating enzyme UBC9 (Homo sapiens) (UniProt P63279)
- Sequence (P63279 whole entry, looked up): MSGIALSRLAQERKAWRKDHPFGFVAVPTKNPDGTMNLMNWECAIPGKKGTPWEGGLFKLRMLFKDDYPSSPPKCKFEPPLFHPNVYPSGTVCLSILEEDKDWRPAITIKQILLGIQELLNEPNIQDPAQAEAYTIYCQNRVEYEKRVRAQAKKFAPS
- assay-protocol: blockers of UBC9-mediated SUMO conjugation – biochemical, AlphaScreen, SUMOylation inhibitor project, confirmation (AID 2018)
- cond: AlphaScreen in vitro SUMOylation assay; at 35 µM; stronger effect = higher value
In all, about 1,200 compounds went through this assay and about 600 (50%) were called active. The set was probably picked from earlier hits. The list shows a part of the results. Entries with a potency or affinity are not part of this list.
Numbers only, in %.

>  <molecule>
CCOC(=O)C1CC(=O)c2cc(OC)c(OC)cc2C1 (stereo not given)

>  <measurement-target>
SUMO-conjugating enzyme UBC9 (Homo sapiens) (UniProt P63279)

>  <unit-text>
%

>  <inhibition>
12.9

$$$$

Report inhibition for every entry below.
1. CCOC(=O)COc1nc(-c2ccco2)cc(-c2ccco2)c1C#N
2. Cc1ccc(-n2nc3ccc(N)cc3n2)c(C)c1

Output line:
-28.4
39.7

Would you mind giving inhibition for every molecule in the list below?
1. CCc1c(C)c2cc(Cl)c(O)c(CN(C)C)c2oc1=O
2. COc1ccc(CCNC(=O)c2ccc3nc(-c4ccco4)c(-c4ccco4)nc3c2)cc1OC
3. CN1C(=O)N(C)c2ccc(C=O)c3cccc1c23
4. Cc1[nH][nH]c(=O)c1C(c1c(C)[nH][nH]c1=O)c1cn(Cc2cccc3ccccc23)c2ccccc12
5. Cc1oc2c(c(C)cc3oc(=O)c(CC(=O)N[C@@H](C)C(=O)O)c(C)c32)c1C
6. CN1c2ccccc2C(C)(C)C12C=Nc1c(cc(N3CCOCC3)c3ccccc13)O2 (stereo not given)

Output line:
1: 14.3; 2: 73.3; 3: 22.2; 4: 32.5; 5: -7; 6: 45.2

* * *

- measurement-target: SUMO-conjugating enzyme UBC9 (Homo sapiens) (UniProt P63279)
- assay-protocol: blockers of UBC9-mediated SUMO conjugation – biochemical, AlphaScreen, SUMOylation inhibitor project, confirmation (AID 2018)
- cond: AlphaScreen in vitro SUMOylation assay; at 35 µM
The whole screen tested about 1,200 compounds, of which about 600 (50%) were called active. Cut-off read from the data, not from the text of the source: active = inhibition above about 42%; inactive = the rest. So high a share suggests a set chosen from earlier hits. The list shows a part of the results. Results with a measured potency or affinity are listed apart.
Pick one and only one: true (1) for active, false (0) for inactive

Some solved entries appear below for comparison.
>  <compound>
O=C1Nc2ccc(C(F)(F)F)cc2N2CCCC12 (stereo not drawn)

>  <category-label>
true (1)

$$$$
>  <compound>
CSCC[C@H](NC(=O)Cc1c(C)c2c(cc(C)c3c(C)c(C)oc32)oc1=O)C(=O)O

>  <category-label>
false (0)

$$$$

Input line: Per the assay record, what outcome was assigned to "CCOC(=O)N1CCN(C2=C(NS(=O)(=O)c3ccc(C)cc3)C(=O)c3ccccc3C2=O)CC1" ?
Output line: true (1)

* * *

- measurement-target: SUMO-conjugating enzyme UBC9 (Homo sapiens)
- assay-protocol: blockers of UBC9-mediated SUMO conjugation – biochemical, AlphaScreen, SUMOylation inhibitor project, confirmation (AID 2018)
- cond: AlphaScreen in vitro SUMOylation assay; at 35 µM; stronger effect = higher value
The campaign covered roughly 1,200 compounds. About 600 (50%) were called active. So high a share suggests a set chosen from earlier hits. This is one part of the list. Potency and affinity values are given separately.
measured-attribute: inhibition (%)
Give bare numbers, in %.

Here are 5 compounds together with their reported answers.
>  <compound>
Cc1cc2n(n1)SC(Nc1cccc3ccccc13)N2 (stereo unspecified)

>  <inhibition / %>
14

$$$$
>  <compound>
Nc1ccc2nc(-c3ccccc3)sc2c1

>  <inhibition / %>
-1.4

$$$$
>  <compound>
Nc1ccc2nn(-c3cccc4ccccc34)nc2c1

>  <inhibition / %>
43.5

$$$$
>  <compound>
O=C(O)c1ccc(N2N=C(c3ccccc3)CC2c2ccccc2)cc1 (stereo unspecified)

>  <inhibition / %>
-14.9

$$$$
>  <compound>
CCC(NC(=O)Cc1c(C)c2c(cc(C)c3c(C)c(C)oc32)oc1=O)C(=O)O (stereo unspecified)

>  <inhibition / %>
26.9

$$$$

Hi, could you look up inhibition for each item in my list?
1. Oc1ccc(NC(=S)Nc2ccc(O)cc2)cc1
2. O=C(CN1C(=O)CSC1=O)Nc1ccc(C(=O)O)cc1
3. CC(=O)c1ccc2c(c1)C1C=CCC1C(C(=O)O)N2 (stereo unspecified)
4. Cc1ccccc1-c1nc2cc(N)ccc2o1
5. Cc1cc(NC(=O)CSc2nnc(Nc3ccccc3C)s2)no1
6. COc1ccc(-c2ccnc3nc(/N=C/N(C)C)nn23)cc1
7. O=C(/C=C/c1ccco1)NC(=S)NNC(=O)c1ccco1
8. CC(=O)Nc1ccc2nc3ccccc3nc2c1

Output line:
[19.5, -7.6, 101, 21.4, 25.7, -8.3, -483, 15.1]

Consider the following items and state reported inhibition for each.
1. Cc1cc(C)c(S(=O)(=O)/N=C2/C=C(SCC(=O)O)C(=O)c3ccccc32)cc1C
2. CNCc1ccccc1Sc1ccc(O)c(O)c1

Output line:
[95.8, -26.2]

Batch: inhibition for all items listed.
1. C=CCn1c(N)c(C(=O)NCC2CCCO2)c2nc3ccccc3nc21 (stereo unspecified)
2. COc1cc(/C=C2\C(=O)N(CCC#N)N=C2C)ccc1OCC(=O)Nc1ccccc1
3. COCCn1c(N)c(C(=O)OCc2ccccc2)c2nc3ccccc3nc21
4. CC(C)c1ccc(NC(=O)C[n+]2ccn(C3=C([O-])c4ccccc4C3=O)c2)cc1
5. CN(C)C=Nc1ccc2nn(-c3ccccc3)nc2c1
6. CCOC(=O)c1nn(-c2ccc3c(c2)CCN3C(C)=O)cc1O
7. COC(=O)c1scc(C)c1NC(=O)C(Cl)c1ccccc1 (stereo unspecified)
8. Cc1ccc(NC(=S)Nc2cccc3ccccc23)cc1

Output line:
1. -9.9
2. 12.4
3. -26.1
4. 61.2
5. -10.8
6. 16.7
7. -8.2
8. 19.1

* * *

- measurement-target: SUMO-conjugating enzyme UBC9 (Homo sapiens) (UniProt P63279)
- assay-protocol: blockers of UBC9-mediated SUMO conjugation – biochemical, AlphaScreen, SUMOylation inhibitor project, confirmation (AID 2018)
- cond: AlphaScreen in vitro SUMOylation assay; at 35 µM
In all, about 1,200 compounds went through this assay and about 600 (50%) were called active. Rule as the data show it: active = inhibition above about 42%; inactive = the rest. So high a share suggests a set chosen from earlier hits. This is one part of the list. Entries with a potency or affinity are not part of this list.
Select the matching outcome among 1 = active, -1 = inactive

Worked examples, 2 molecules total:
>  <structure-string>
Clc1ccc(C2=CSC3=Nc4cccc5cccc(c45)N23)cc1

>  <category-label>
1

$$$$
>  <structure-string>
Cc1ccoc1C(=O)NCCCNC(=O)c1occc1C

>  <category-label>
1

$$$$

Next molecule, please.
Input line: Look up the recorded call for "CC(C)c1ccc(NC(=S)Nc2cccc3ccccc23)cc1" in this test.
Output line: -1
